# System: LXFL 529
# EXPERIMENTAL PROTOCOL: NCI tumour cell line growth inhibition, 48 h
Calls of active or inactive are those of the source. Rule as the data show it: active = GI50 up to about 1.1 µM and inactive = higher.
MEASUREMENT LABEL: GI50

Examples with their reported GI50 follow.
1) COC1=C(N)C(=O)c2nc(C)ccc2C1=O : 2.43 µM (inactive)
2) COc1cc([C@@H]2Oc3cc4oc(-c5ccccc5)cc(=O)c4c(O)c3O[C@H]2OC)ccc1O : 11.1 µM (inactive)
3) Oc1nnc2c(-c3ccccc3)n[nH]c2n1 : > 100 µM (inactive)
4) Cc1ccc(C2OC(COCc3ccc(Cl)cc3)C(OCc3ccc(Cl)cc3)C2O)cc1 (stereo not given) : 8.47 µM (inactive)
5) COc1ccc(CCc2ccccc2CC(=O)O)cc1 : > 100 µM (inactive)
6) CCCCCCCCCCCCCP(=O)(NCC(N)=O)OCC (stereo not given) : 16.8 µM (inactive)

Query: Entry "Cc1c(C(=O)/C=C/c2ccc3c(c2)OCO3)[n+]([O-])c2ccccc2[n+]1[O-]" , system LXFL 529: what GI50 was measured?
Result: 22.2 µM (inactive)

Query: Entry "O=C1/C(=C/c2ccccc2)CN(C(=O)Oc2ccccc2)C/C1=C\c1ccccc1" , system LXFL 529: what GI50 was measured?
Result: 50.6 µM (inactive)

Query: Entry "O=c1c2ccccc2nc(-c2ccccc2)n1NC(=S)Nc1ccccc1" , system LXFL 529: what GI50 was measured?
Result: 81.8 µM (inactive)

Query: Entry "CC(C)c1ccc(Cc2ccc(C(C)C)c(NC(=O)C(=O)Cc3cnc4ccccc4n3)c2C(C)C)c(C(C)C)c1NC(=O)C(=O)Cc1cnc2ccccc2n1" , system LXFL 529: what GI50 was measured?
Result: > 100 µM (inactive)

====

# System: SN12C
# EXPERIMENTAL PROTOCOL: NCI tumour cell line growth inhibition, 48 h
The source made the active and inactive calls. Cut-off read from the data, not from the text of the source: active = GI50 up to about 1.1 µM and inactive = higher.
// reported GI50 per item

1) CC1(C)OCC2OC3([C@@H]4OC(C)(C)O[C@H]4CO)OC(C)(C)OC3C2O1 (stereo not given in full) : > 100 µM (inactive)
2) COc1cc(/C=C2/SC(c3ccccc3)N(c3ccc(Cl)cc3)C2=O)cc(OC)c1OC (stereo not given) : > 32 µM (inactive)
3) CC(C)CC(C(N)=O)C(=O)NC(Cc1ccccc1)NC(=O)CNC(=O)C(C)NC(=O)C(N)Cc1ccc(O)cc1 (stereo not given) : > 100 µM (inactive)
4) C#CCOC(=O)C(N)CS (stereo not given) : > 100 µM (inactive)
5) O=C1/C(=C/c2ccco2)NC(=S)N1CN1CCCCC1 : > 100 µM (inactive)
6) C=C1C[C@H](O)[C@H]2C(C[Se]c3ccccc3)C(=O)O[C@@H]2[C@H]2[C@H](C)C(O)C[C@@H]12 (stereo not given in full) : 21.8 µM (inactive)
7) O=C(/C=C1\Nc2ccc([N+](=O)[O-])cc2N=C1NC12CC3CC(CC(C3)C1)C2)c1ccccc1 : > 10 µM (inactive)
8) CC[C@@H]1OC2(C)CC(S(=O)(=O)c3ccccc3)CC1O2 (stereo not given in full) : > 100 µM (inactive)
9) CC[P+](C)(Cc1ccccc1)c1ccccc1 (stereo not given) : > 100 µM (inactive)

Attention now shifts to the item below.
Query: Given CC(=O)/C=C/C1=C(C)CCCC1(C)CC(C)C (stereo not given) , state its recorded GI50.
Result: 18.8 µM (inactive)
